system: PC-3; experiment: NCI tumour cell line growth inhibition, 48 h
Activity calls are given as the source filed them. No stated cut-off is given here; in the data, active = GI50 up to about 1.1 µM and inactive = higher.
Outcome codes: true for active, false for inactive

molecule	tgt	class
CC(=O)/C=C1\Nc2ccccc2N\C1=C/C(C)=O	PC-3	false
CN(C)CCN1C(=O)CC[C@@]2(C)C1=CC[C@@H]1[C@@H]2CC[C@@]2(C)[C@H]1CC[C@]2(C)O	PC-3	false
O=C(O)CSc1ccc(N=C=S)cc1	PC-3	false
COc1cc(/C=C2\CC(C)C/C(=C\c3ccc(O)c(OC)c3)C2=O)ccc1O (stereo unspecified)	PC-3	false
C=C(C)[C@@H]1CC[C@@H](C)[C@](O)([C@@H]2C[C@@H]([C@H](COC(=O)c3ccccc3)OC(=O)c3ccccc3)OC2=O)C1	PC-3	false
O=C(Nc1ccccc1)c1cc2c(cc1Cl)SC(NNCCO)=NS2(=O)=O	PC-3	false
Nc1nc(-c2ccccc2)c(Cl)c(-c2cc(Cl)ccc2O)n1	PC-3	false
S=c1sc2c(s1)SCCCCSCCCCSc1sc(=S)sc1SCCCCSCCCCS2	PC-3	false
O=c1[nH]cc(/N=C/c2cc(Cl)ccc2O)c(=O)[nH]1	PC-3	false
Cc1ccc(S(=O)(=O)N2c3ccccc3[C@H]3CCC=C[C@H]32)cc1	PC-3	false
CCC1(O)CC(OC2CC(N(C)C)C(OC3CC(O)C(OC4CCC(=O)C(C)O4)C(C)O3)C(C)O2)c2c(cc3c(c2O)C(=O)c2c(O)ccc(O)c2C3=O)C1C(=O)OC (stereo unspecified)	PC-3	true
CO/N=C1/c2sccc2[C@H](NC(=O)C(F)(F)F)[C@@H]1O	PC-3	false
CCCCCCCCOc1ccc(/C=C/C2=[N+](CCO)CCO2)cc1	PC-3	false
CNCCNc1ccc2c3c(nn2CCNCCO)-c2c(O)ccc(O)c2C(=O)c13	PC-3	true
O=P(Oc1ccc(Cl)cc1)(Oc1ccc(Cl)cc1)N1CC1	PC-3	false
ClC(Cl)(Cl)C(N1CCN(c2ccccc2)CC1)N1CCN(c2ccccc2)CC1	PC-3	false
CC(C)N(Cc1ccccc1)S(=O)(=O)c1nc(C(C)(C)C)n[nH]1	PC-3	false
Cc1ccc(S(=O)ON2CCC(C(=O)O)(c3ccccc3)CC2)cc1 (stereo unspecified)	PC-3	false
FC(F)(F)c1ccc2c(-c3cc[nH]c3)ccnc2c1	PC-3	false
C=C1C(=O)OC2CC1C(O)C/C(C)=C/CC/C(C)=C/C(O)CC2C (stereo unspecified)	PC-3	false
CCCCNC(=O)Cn1c2ccc(Br)cc2c2nc3ccccc3nc21	PC-3	false

====

tested on: HCT-116; test: NCI tumour cell line growth inhibition, 48 h
Calls of active or inactive are those of the source. No stated cut-off is given here; in the data, active = GI50 up to about 1.1 µM and inactive = higher.
measuredParameter: GI50

In [3]: df
Out[3]:
                                    compound      tgt  measuredparameter       endpointresult
 0  OC12CCC3(O)c4ccccc4C3C1c1ccccc12 (stereo unspecified)  HCT-116               GI50  > 100 µM (inactive)
 1   Clc1ccc(-c2nnc(-c3cccc4ccccc34)o2)cc1Cl  HCT-116               GI50  > 100 µM (inactive)
 2  CN(c1ccccc1)c1nc(=[N+]2CCCC2)ss1.[O-][Cl+3]([O-])([O-])[O-]  HCT-116               GI50  > 100 µM (inactive)
 3  CO/N=C1/c2sccc2[C@H](NC(=O)C(F)(F)F)[C@@H]1O  HCT-116               GI50  > 100 µM (inactive)
 4     O=C1C=CC(=O)N1n1c(-c2ccccc2)n[nH]c1=O  HCT-116               GI50  > 100 µM (inactive)
 5  COC(=O)[C@H](Cc1ccccc1)NC(=O)NCCN(CCNC(=O)N[C@@H](Cc1ccccc1)C(=O)OC)C(=O)N[C@@H](Cc1ccccc1)C(=O)OC  HCT-116               GI50   20.3 µM (inactive)
 6  Cc1ccc(-c2n[nH]c(=O)n2NC(=O)c2ccccc2C(=O)O)cc1  HCT-116               GI50  > 100 µM (inactive)
 7       Cc1n[n+](CC(=O)c2ccccc2)c2sc(N)nn12  HCT-116               GI50  > 100 µM (inactive)
 8  CCC1(C)C=Cc2c(cc(O)c3c(=O)c4ccccc4n(C)c23)O1 (stereo unspecified)  HCT-116               GI50   > 10 µM (inactive)
 9                 C=CC1(c2ccc(Br)cc2)OCCCO1  HCT-116               GI50  > 100 µM (inactive)
10                     CN(C)C(=N)NC(=S)N(C)C  HCT-116               GI50  > 100 µM (inactive)

====

tested on: NCI-H522; experiment: NCI tumour cell line growth inhibition, 48 h
Active and inactive are the calls of the source. Cut-off read from the data, not from the text of the source: active = GI50 up to about 1.1 µM and inactive = higher.
measuredParameter: GI50

compound	measuredParameter	endpointResult
CCc1nc2c(O)ccc(O)c2nc1C	GI50	2.56 µM (inactive)
Cc1ccc2c(=O)c(-c3nnsn3)c[nH]c2n1	GI50	> 100 µM (inactive)
Cc1ccc(S(=O)(=O)NC(C)C(=O)O)cc1 (stereo not drawn)	GI50	> 100 µM (inactive)
COc1cc(CC(C)N[C@@H](C)c2ccccc2)cc(OC)c1 (stereo partly drawn)	GI50	> 100 µM (inactive)
CC(=O)Nc1ccc2[nH]c(C(=O)N3CC(CCl)c4c3cc(N)c3ccccc43)cc2c1 (stereo not drawn)	GI50	< 0.01 µM (active)
CN(C)CCN1C(=O)CC[C@@]2(C)C1=CC[C@@H]1[C@@H]2CC[C@@]2(C)[C@H]1CC[C@]2(C)O	GI50	> 100 µM (inactive)
COC(C(=O)C(O)C(C)O)C1CC2C=C3C=C(OC4CC(OC5CC(O)C(OC)C(C)O5)C(OC(C)=O)C(C)O4)C(C)C(O)=C3C(O)=C2C(=O)C1OC1CC(OC2CC(OC3CC(C)(O)C(OC(=O)C(C)C)C(C)O3)C(O)C(C)O2)C(O)C(C)O1 (stereo not drawn)	GI50	< 0.01 µM (active)
C=CC1(c2ccc(Br)cc2)OCCCO1	GI50	> 100 µM (inactive)
COc1cc(C)c(/C=C/C(=O)N2C(=O)OC[C@@H]2c2ccccc2)c(C)c1	GI50	> 100 µM (inactive)
O=C(O)C/C(=C\c1ccco1)C(=O)O	GI50	> 100 µM (inactive)
CC(=O)/C=C1\Nc2ccccc2N\C1=C/C(C)=O	GI50	11.1 µM (inactive)
COc1ccc(C(=O)Cc2ccc(Br)cc2)cc1OC	GI50	79.3 µM (inactive)
Nc1ccc(CCSSCCc2ccc(N)cc2)cc1	GI50	12.9 µM (inactive)

====

tested on: K562; experiment: NCI tumour cell line growth inhibition, 48 h
Active and inactive are the calls of the source. No stated cut-off is given here; in the data, active = GI50 up to about 1.1 µM and inactive = higher.
measuredParameter: GI50

In [3]: df
Out[3]:
                                   compound  measuredparameter       endpointresult
0  CC(C)N(Cc1ccccc1)S(=O)(=O)c1nc(C(C)(C)C)n[nH]1               GI50  > 100 µM (inactive)
1       Cc1n[n+](CC(=O)c2ccccc2)c2sc(N)nn12               GI50  > 100 µM (inactive)
2          C/C(=N/NC(=S)N1CCCCCC1)c1ccccc1O               GI50   3.31 µM (inactive)
3  CN1C(=O)N(C)C(N2CCCC2)c2c1nc1ccccn1c2=O (stereo not given)               GI50   53.1 µM (inactive)
4  COC(=O)C(/C(=N\O)C(=O)Nc1cccc(Cl)c1C)c1cnc2ccccc2n1 (stereo not given)               GI50  > 100 µM (inactive)
5  CCOC(=O)NC(=O)c1cn(CCN(CCO)C(=O)NCCCCCCNC(=O)N(CCO)CCn2cc(C(=O)NC(=O)OCC)c(=O)[nH]c2=O)c(=O)[nH]c1=O               GI50  > 100 µM (inactive)
6  CCOC(=O)C(Cc1ccc2ccccc2c1)(Cc1ccc2ccccc2c1)C(C)=O               GI50   1.67 µM (inactive)
7  NS(=O)(=O)c1ccc(NNc2c3ccccc3nc3ccccc23)cc1               GI50   7.89 µM (inactive)
8  COc1ccc(Cc2nc3cc([N+](=O)[O-])ccc3n2C[C@@H]2CCCN3CCCCC23)cc1 (stereo not given in full)               GI50   19.8 µM (inactive)
9  C=CCSc1nc2c(N)ncnc2n1C1OC(CO)C(O)C1O (stereo not given)               GI50  > 100 µM (inactive)

# credit: ChEMBL document CHEMBL1201862
